- measurement notes: Rodent Pharmacokinetics Studies
- Type: in vivo, rat
- assay context: male, Han Wistar, rat, plasma, iv, 5 mg/kg; rats; footnote (3): i.v. samples at 0.03, 0.1, 0.167, 0.25, 0.5, 1, 2, 4, 6, 8, 24 hours; read-out: Bioavail, F (%)
quantity measured: bioavailability

Exam item: Returns the measured bioavailability for the input compound. Input: C[C@]1(O)CC[C@@H](NS(=O)(=O)c2ccc(-c3ccc(C#N)cc3)c(F)c2)CC1
Marked response: 86%

###

- tgt: CYP2C19 (Homo sapiens, UniProt P33261)
- Construct: purchased Cypex Ltd, Dundee, Scotland UK
- Sequence (P33261 whole entry): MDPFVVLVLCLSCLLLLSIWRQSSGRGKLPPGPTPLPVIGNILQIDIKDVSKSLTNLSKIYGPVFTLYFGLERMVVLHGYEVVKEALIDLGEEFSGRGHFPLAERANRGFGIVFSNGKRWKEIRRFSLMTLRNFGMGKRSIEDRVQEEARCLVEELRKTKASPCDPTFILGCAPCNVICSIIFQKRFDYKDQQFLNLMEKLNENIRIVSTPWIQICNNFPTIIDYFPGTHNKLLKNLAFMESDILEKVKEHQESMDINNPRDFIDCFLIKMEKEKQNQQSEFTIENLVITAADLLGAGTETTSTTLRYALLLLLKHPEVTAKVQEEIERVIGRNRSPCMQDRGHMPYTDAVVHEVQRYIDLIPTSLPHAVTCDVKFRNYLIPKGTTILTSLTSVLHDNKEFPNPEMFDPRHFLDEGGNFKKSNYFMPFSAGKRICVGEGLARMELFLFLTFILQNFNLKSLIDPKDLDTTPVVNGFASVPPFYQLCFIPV
- measurement notes: Human Cytochrome P450 Inhibition Assay (Bactosomes), CYP2C19
- Format: in vitro ADME
- assay context: recombinant Bactosomes, probe substrate, 10 minutes at 37° C.
Provide the recorded IC50 for the entries that follow.
Answers are plain numbers, in µM.

These solved cases illustrate the format of a correct answer.
Exam item: Short answer please: IC50, CYP2C19 (Homo sapiens, UniProt P33261), entry C[C@]1(O)CC[C@H](NS(=O)(=O)c2ccc(-c3ccc(Cl)cc3C#N)c(Cl)c2)CC1 [HMC-C-11-A]
Marked response: 5.1

Exam item: Checklist item: IC50 tested on CYP2C19 (Homo sapiens, UniProt P33261), entry C[C@]1(O)CC[C@@H](NS(=O)(=O)c2ccc(-c3cc(F)c(F)cc3F)cc2)CC1 [HMC-C-10-B] , value?
Marked response: 8.5

Exam item: Form entry - test system: CYP2C19 (Homo sapiens, UniProt P33261); read-out: IC50; molecule: C[C@]1(O)CC[C@H](NS(=O)(=O)c2ccc(-c3ccc(Cl)cc3C#N)c(F)c2)CC1 [HMC-C-08-A]
Marked response: 30

Now examine the next entry.
Exam item: Form: Entry = C[C@]1(O)CC[C@@H](NS(=O)(=O)c2ccc(-c3ccc(F)cc3F)cc2)CC1 [ABD899, reference compound] | System = CYP2C19 (Homo sapiens, UniProt P33261) | IC50 = ____
Marked response: 7.3

###

- measurement notes: Rodent Pharmacokinetics Studies
- Format: in vivo, rat
- assay context: male, Han Wistar, rat, plasma; rats; footnotes (1)(2): 5% DMSO/10% solutol in saline for both routes; sampling incl. 23 and 24 hours; oral 10 mg/kg; read-out: Bioavail, F (%)
quantity measured: bioavailability
Answer format: value, then unit.

Exam item: Please look up its bioavailability: C[C@]1(O)CC[C@@H](NS(=O)(=O)c2ccc(-c3ccc(C#N)cc3)c(F)c2)CC1 [HMC-C-07-B]
Marked response: 100%

###

- measurement notes: Rodent Pharmacokinetics Studies
- Assay type: in vivo, rat
- assay context: male, Han Wistar, rat, plasma, rats; study of footnote (3)
- Method: Absorption and metabolic stability were studied using an in vivo pharmacokinetics assay. […] For compound HMC-C-01-A the oral administration was formulated in 2% dimethylacetamide/20% hydroxypropyl-β-cyclodextrin in water. […] The pharmacokinetic parameters for the test compounds were calculated by Phoenix WinNonlin version 6.3 (Pharsight Corp, CA) using standard non-compartmental methods. […] The elimination phase half-life (t1/2) was calculated as 0.693/kel.
quantity measured: half-life (min)
One number for each entry, in min.

Exam item: Fill in: half-life of C[C@]1(O)CC[C@@H](NS(=O)(=O)c2ccc(-c3ccc(C#N)cc3)c(F)c2)CC1 is ___
Marked response: 540
